As shown below, each of these compounds has a reported IC50 value.
# System under test: human PDE1B enzyme (Homo sapiens (Human), UniProt Q01064)
# Assay info: IMAP TR-FRET PDE1B enzymatic assay
# Assay type: biochemical
# Reported conditions: negative log of half-maximal molar inhibitory concentration; 200 nM FAM-cAMP; values given as bins; read-out: PDE1b (pIC50) (converted)

{"Compound": "CCN(Cc1ccc(OC)cc1)C(=O)c1c(C)oc2ncnc(NC3(C)CC3)c12", "System under test": "human PDE1B enzyme (Homo sapiens (Human), UniProt Q01064)", "Measure": "IC50", "Result": "10 to 100 nM"}
{"Compound": "Cc1oc2ncnc(NC3(C)CC3)c2c1C(=O)N1CCN(c2ccc(F)cc2S(C)(=O)=O)CC1", "System under test": "human PDE1B enzyme (Homo sapiens (Human), UniProt Q01064)", "Measure": "IC50", "Result": "10 to 100 nM"}
{"Compound": "COCc1nc2c(c(=O)[nH]1)CCN(C(=O)c1c(C)oc3ncnc(NC4(C)CC4)c13)C2", "System under test": "human PDE1B enzyme (Homo sapiens (Human), UniProt Q01064)", "Measure": "IC50", "Result": "100 to 1000 nM"}
{"Compound": "Cc1oc2ncnc(NC3(C)CC3)c2c1C(=O)Nc1cnn(C)c1", "System under test": "human PDE1B enzyme (Homo sapiens (Human), UniProt Q01064)", "Measure": "IC50", "Result": "10 to 100 nM"}

Looking for the measured IC50 of Cc1oc2ncnc(NC3(C)CC3)c2c1C(=O)N1CCC(c2ccc(OCCF)cc2)C1 (stereo not drawn) , can you help?
10 to 100 nM

Which IC50 is listed for Cc1cc(C)nc(CNC(=O)c2c(C)oc3ncnc(NC4(C)CC4)c23)n1 ?
10 to 100 nM

Request the reported IC50 associated with Cc1nc(CNC(=O)c2c(C)oc3ncnc(NC4(C)CC4)c23)no1
10 to 100 nM

Tell me the measured IC50 of Cc1nc(NC(=O)c2c(C)oc3ncnc(NC4(C)CC4)c23)ccc1F , please.
10 to 100 nM

For the compound Cc1nc(CNC(=O)c2c(C)oc3ncnc(NC4(C)CC4)c23)oc1C , what IC50 is on record?
10 to 100 nM

---

# System under test: human PDE1B enzyme (Homo sapiens (Human))
# Assay info: IMAP TR-FRET PDE1B enzymatic assay
# Type: biochemical
# Reported conditions: negative log of half-maximal molar inhibitory concentration; 200 nM FAM-cAMP; values given as bins; read-out: PDE1b (pIC50) (converted)
Item-by-item account of IC50

{"Substance smiles": "CCC1(NC(=O)c2c(C)oc3ncnc(NC4(C)CC4)c23)CCOCC1", "System under test": "human PDE1B enzyme (Homo sapiens (Human))", "IC50": "10 to 100 nM"}

Need IC50 of CCCOc1ncnc2c1CCN(C(=O)c1c(C)oc3ncnc(NC4(C)CC4)c13)C2 , thanks.
10 to 100 nM

Consider the molecule shown here: Cc1oc2ncnc(NC3(C)CC3)c2c1C(=O)NC1(C)COC1 What is its recorded IC50?
10 to 100 nM

Fill blank: measured IC50 of the molecule Cc1oc2ncnc(NC3(C)CC3)c2c1C(=O)N1CCn2ncc(Br)c2C1 is ____.
100 to 1000 nM

For the molecule Cc1ccc(NC(=O)c2c(C)oc3ncnc(NC4(C)CC4)c23)nc1 , what IC50 is on record?
100 to 1000 nM

---

# System under test: UniProt:Q01064
# Assay info: IMAP TR-FRET PDE1B enzymatic assay
# Type: biochemical
# Reported conditions: negative log of half-maximal molar inhibitory concentration; 200 nM FAM-cAMP; values given as bins; read-out: PDE1b (pIC50) (converted)
# key: entry, value: IC50

{"Molecule": "Cc1oc2ncnc(NC3(C)CC3)c2c1C(=O)N1CCN(c2nccs2)CC1", "IC50": "10 to 100 nM"}
{"Molecule": "Cc1nc(NC(=O)c2c(C)oc3ncnc(NC4(C)CC4)c23)sc1C", "IC50": "10 to 100 nM"}
{"Molecule": "Cc1oc2ncnc(NC3(C)CC3)c2c1C(=O)N1CCc2cnc(C(C)C)nc2C1", "IC50": "10 to 100 nM"}

Find IC50 (UniProt:Q01064) for the entry Cc1oc2ncnc(NC3(C)CC3)c2c1C(=O)n1cc(-c2ccccc2)cn1
100 to 1000 nM

Give the reported IC50 for Cc1oc2ncnc(NC3(C)CC3)c2c1C(=O)N1CCC(c2ccccn2)C1 (centres unmarked) (system: UniProt:Q01064).
10 to 100 nM

---

# System under test: human PDE1B enzyme (Homo sapiens (Human), UniProt Q01064)
# Assay info: IMAP TR-FRET PDE1B enzymatic assay
# Assay type: biochemical
# Reported conditions: negative log of half-maximal molar inhibitory concentration; 200 nM FAM-cAMP; values given as bins; read-out: PDE1b (pIC50) (converted)
Measure: IC50

Check out these entries, answers already filled in.
{"Compound": "Cc1oc2ncnc(NC3(C)CC3)c2c1C(=O)Nc1ccnn1C [Example 174]", "IC50": "100 to 1000 nM"}
{"Compound": "Cc1cc2n(n1)CCN(C(=O)c1c(C)oc3ncnc(NC4(C)CC4)c13)C2 [Example 632]", "IC50": "10 to 100 nM"}
{"Compound": "COc1cccc(OC2CN(C(=O)c3c(C)oc4ncnc(NC5(C)CC5)c34)C2)c1 [Example 590]", "IC50": "< 10 nM"}
{"Compound": "Cc1oc2ncnc(NC3(C)CC3)c2c1C(=O)N[C@H]1C[C@@H](F)C1 [Example 127]", "IC50": "100 to 1000 nM"}
{"Compound": "Cc1oc2ncnc(NC3(C)CC3)c2c1C(=O)N1CCc2ncccc2C1 [Example 631]", "IC50": "100 to 1000 nM"}
{"Compound": "Cc1oc2ncnc(NC3(C)CC3)c2c1C(=O)N1CCc2cccc(OCF)c2C1 [Example 766]", "IC50": "10 to 100 nM"}
{"Compound": "Cc1oc2ncnc(NC3(C)CC3)c2c1C(=O)N1CCN(c2ccnc(F)c2)CC1 [Example 160]", "IC50": "10 to 100 nM"}

Next:
GET /values?readout=IC50&item= Cc1oc2ncnc(NC3(C)CC3)c2c1C(=O)N1CCC(c2ncc(C(F)(F)F)cn2)CC1 [Example 431]
10 to 100 nM

---

# System under test: human PDE1B enzyme (Homo sapiens (Human), UniProt Q01064)
# Assay info: IMAP TR-FRET PDE1B enzymatic assay
# Format: biochemical
# Reported conditions: negative log of half-maximal molar inhibitory concentration; 200 nM FAM-cAMP; values given as bins; read-out: PDE1b (pIC50) (converted)
Measure: IC50

{"Compound": "Cc1oc2ncnc(NC3(C)CC3)c2c1C(=O)NCCc1nc2cc(F)ccc2[nH]1 [Example 724]", "Result": "0.01 to 0.1 µM"}
{"Compound": "COc1ccc(-c2cc(CNC(=O)c3c(C)oc4ncnc(NC5(C)CC5)c34)no2)cc1 [Example 326]", "Result": "0.01 to 0.1 µM"}
{"Compound": "Cc1oc2ncnc(NC3(C)CC3)c2c1C(=O)n1cc(C(C)C)cn1 [Example 404]", "Result": "0.01 to 0.1 µM"}

Value wanted: IC50 (human PDE1B enzyme (Homo sapiens (Human), UniProt Q01064)) of entry Cc1oc2ncnc(NC3(C)CC3)c2c1C(=O)N1CCOC(c2cnn(C)c2)C1 (centres unmarked) [Example 121]
0.1 to 1 µM

Item: COc1cccc(-c2cnn(C(=O)c3c(C)oc4ncnc(NC5(C)CC5)c34)c2)c1 [Example 412] Test system: human PDE1B enzyme (Homo sapiens (Human), UniProt Q01064) Read-out: IC50 Value: ?
0.01 to 0.1 µM

---

Here the recorded IC50 is given for each entry.
# System under test: human PDE1B enzyme (Homo sapiens (Human))
# Assay info: IMAP TR-FRET PDE1B enzymatic assay
# Type: biochemical
# Reported conditions: negative log of half-maximal molar inhibitory concentration; 200 nM FAM-cAMP; values given as bins; read-out: PDE1b (pIC50) (converted)

{"Compound": "Cc1oc2ncnc(NC3(C)CC3)c2c1C(=O)N1CCc2c(O)ccnc2C1 [Example 19]", "Result": "0.1 to 1 µM"}
{"Compound": "Cc1oc2ncnc(NC3(C)CC3)c2c1C(=O)NC1CCN(c2ncccn2)CC1 [Example 665]", "Result": "0.01 to 0.1 µM"}
{"Compound": "COc1ncnc2c1CN(C(=O)c1c(C)oc3ncnc(NC4(C)CC4)c13)C2 [Example 622]", "Result": "0.1 to 1 µM"}

Please examine the following record next.
Item Cc1oc2ncnc(NC3(C)CC3)c2c1C(=O)NC(C)c1ccc(F)cc1 (stereo in doubt) [Example 484] has what recorded IC50?
0.01 to 0.1 µM
